Assay type: physicochemical
EXPERIMENTAL_PARAMETERS: MeOH, 50° C., 125 hrs
Numbered stars: 1 amine (or outer) side, 2 acyl side, 3 side chain; on linkers, the order of the positions; unused ones are H or OH. Square brackets hold non-standard residues; d marks the D form. Peptide text beside a SMILES is read from it. ξ: configuration not given here. MeBmt = C/C=C/C[C@@H](C)[C@@H](O)[C@H](NC)C(=O)O; X1 = CN([C@H](SCCCN1CCOCC1)C(=O)[*:2])[*:1]; X2 = CCN(CC)CCCS[C@H](C(=O)[*:2])N(C)[*:1]; X3 = CCN(CC)CCS[C@H](C(=O)[*:2])N(C)[*:1]; NMeIle(3ξ) = CCC(C)[C@H](NC)C(=O)O; NMeL = CN[C@@H](CC(C)C)C(=O)O; NMeV = CN[C@H](C(=O)O)C(C)C; Abu = CC[C@H](N)C(=O)O
ENDPOINT_NAME: Epimerization in MeOH at 50° C.

Known results for compounds:
{"COMPOUND": "C/C=C/C[C@@H](C)[C@@H](O)[C@H]1C(=O)N[C@@H](CC)C(=O)N(C)[C@H](SCCN(C)C)C(=O)N(C)[C@@H](CC(C)C)C(=O)N[C@@H](C(C)C)C(=O)N(C)[C@@H](CC(C)C)C(=O)N[C@@H](C)C(=O)N[C@H](C)C(=O)N(C)[C@@H](CC(C)C)C(=O)N(C)[C@@H](CC(C)C)C(=O)N(C)[C@@H](C(C)C)C(=O)N1C [drawing 58, reference compound]", "OBSERVED_VALUE": "34.9%"}
{"COMPOUND": "C/C=C/C[C@@H](C)[C@@H](O)[C@H]1C(=O)N[C@@H](CC)C(=O)N(C)[C@H](SCCN(CC)CC)C(=O)N(C)[C@@H](C(C)CC)C(=O)N[C@@H](C(C)C)C(=O)N(C)[C@@H](CC(C)C)C(=O)N[C@@H](C)C(=O)N[C@H](C)C(=O)N(C)[C@@H](CC(C)C)C(=O)N(C)[C@@H](CC(C)C)C(=O)N(C)[C@@H](C(C)C)C(=O)N1C (stereo partly drawn) [reference compound] (cyclo(A[dA][NMeL][NMeL][NMeV][MeBmt][Abu][X3][NMeIle(3ξ)]V[NMeL]))", "OBSERVED_VALUE": "16.2%"}
{"COMPOUND": "C/C=C/C[C@@H](C)[C@@H](O)[C@H]1C(=O)N[C@@H](CC)C(=O)N(C)[C@H](SCCCN(CC)CC)C(=O)N(C)[C@@H](C(C)C)C(=O)N[C@@H](C(C)C)C(=O)N(C)[C@@H](CC(C)C)C(=O)N[C@@H](C)C(=O)N[C@H](C)C(=O)N(C)[C@@H](CC(C)C)C(=O)N(C)[C@@H](CC(C)C)C(=O)N(C)[C@@H](C(C)C)C(=O)N1C (cyclo(A[dA][NMeL][NMeL][NMeV][MeBmt][Abu][X2][NMeV]V[NMeL]))", "OBSERVED_VALUE": "0%"}
{"COMPOUND": "C/C=C/C[C@@H](C)[C@@H](O)[C@H]1C(=O)N[C@@H](CC)C(=O)N(C)[C@H](SCCCN2CCOCC2)C(=O)N(C)[C@@H](C(C)CC)C(=O)N[C@@H](C(C)C)C(=O)N(C)[C@@H](CC(C)C)C(=O)N[C@@H](C)C(=O)N[C@H](C)C(=O)N(C)[C@@H](CC(C)C)C(=O)N(C)[C@@H](CC(C)C)C(=O)N(C)[C@@H](C(C)C)C(=O)N1C (stereo partly drawn) (cyclo(A[dA][NMeL][NMeL][NMeV][MeBmt][Abu][X1][NMeIle(3ξ)]V[NMeL]))", "OBSERVED_VALUE": "0%"}

Fill blank: measured Epimerization in MeOH at 50° C. of the compound C/C=C/C[C@@H](C)[C@@H](O)[C@H]1C(=O)N[C@@H](CC)C(=O)N(C)[C@H](SCCCN(CC)CC)C(=O)N(C)[C@@H](C(C)CC)C(=O)N[C@@H](C(C)C)C(=O)N(C)[C@@H](CC(C)C)C(=O)N[C@@H](C)C(=O)N[C@H](C)C(=O)N(C)[C@@H](CC(C)C)C(=O)N(C)[C@@H](CC(C)C)C(=O)N(C)[C@@H](C(C)C)C(=O)N1C (stereo partly drawn) (cyclo(A[dA][NMeL][NMeL][NMeV][MeBmt][Abu][X2][NMeIle(3ξ)]V[NMeL])) is ____.
0%

Fill blank: measured Epimerization in MeOH at 50° C. of the compound C/C=C/C[C@@H](C)[C@@H](O)[C@H]1C(=O)N[C@@H](CC)C(=O)N(C)[C@H](SCCCN2CCOCC2)C(=O)N(C)[C@@H](C(C)C)C(=O)N[C@@H](C(C)C)C(=O)N(C)[C@@H](CC(C)C)C(=O)N[C@@H](C)C(=O)N[C@H](C)C(=O)N(C)[C@@H](CC(C)C)C(=O)N(C)[C@@H](CC(C)C)C(=O)N(C)[C@@H](C(C)C)C(=O)N1C (cyclo(A[dA][NMeL][NMeL][NMeV][MeBmt][Abu][X1][NMeV]V[NMeL])) is ____.
0%

====

Type: physicochemical
EXPERIMENTAL_PARAMETERS: MeOH, 50° C., 77 hrs
Numbered stars: 1 amine (or outer) side, 2 acyl side, 3 side chain; on linkers, the order of the positions; unused ones are H or OH. Square brackets hold non-standard residues; d marks the D form. Peptide text beside a SMILES is read from it. MeBmt = C/C=C/C[C@@H](C)[C@@H](O)[C@H](NC)C(=O)O; X1 = CN([C@H](SCCCN1CCOCC1)C(=O)[*:2])[*:1]; NMeL = CN[C@@H](CC(C)C)C(=O)O; NMeV = CN[C@H](C(=O)O)C(C)C; Abu = CC[C@H](N)C(=O)O
ENDPOINT_NAME: Epimerization in MeOH at 50° C. (%)
Value expressed in %; do not type the unit.

Fill blank: measured Epimerization in MeOH at 50° C. of the compound C/C=C/C[C@@H](C)[C@@H](O)[C@H]1C(=O)N[C@@H](CC)C(=O)N(C)[C@H](SCCCN2CCOCC2)C(=O)N(C)[C@@H](C(C)C)C(=O)N[C@@H](C(C)C)C(=O)N(C)[C@@H](CC(C)C)C(=O)N[C@@H](C)C(=O)N[C@H](C)C(=O)N(C)[C@@H](CC(C)C)C(=O)N(C)[C@@H](CC(C)C)C(=O)N(C)[C@@H](C(C)C)C(=O)N1C (cyclo(A[dA][NMeL][NMeL][NMeV][MeBmt][Abu][X1][NMeV]V[NMeL])) is ____.
0

Value source: patent US9217015B2
